# Tested on: SK-MEL-28
# MEASUREMENT_NOTES: Cytotoxicity against human SK-MEL-28 cells
RECORDED_ENDPOINT: IC50 (µM)
I only need the number, in µM, no unit after it.

Field request: IC50 | item: C/C=C1\NC(=O)[C@H](Cc2ccccc2)NC(=O)[C@@H](C(C)C)NC(=O)[C@@H]([C@H](C)CC)NC(=O)[C@H](NC(=O)[C@H](NC(=O)[C@H]2CCCN2C(=O)[C@H](NC(=O)[C@@H](NC(=O)[C@@H](NC(=O)[C@H](NC(=O)CCCC(C)C)C(C)C)[C@@H](C)O)C(C)C)C(C)C)[C@H](C)CC)[C@H](C)OC(=O)[C@H](C(C)C)NC1=O
3.67

Field request: IC50 | item: C/C=C1\NC(=O)[C@H](Cc2ccccc2)NC(=O)[C@@H](C(C)C)NC(=O)[C@@H]([C@H](C)CC)NC(=O)[C@H](NC(=O)[C@H](NC(=O)[C@H](CCCN)NC(=O)[C@H]2CCCN2C(=O)[C@H](NC(=O)[C@@H](NC(=O)[C@@H](NC(=O)[C@H](NC(=O)CCCN(C)C)C(C)C)[C@@H](C)O)C(C)C)C(C)C)[C@H](C)CC)[C@H](C)OC(=O)[C@H](C(C)C)NC1=O
6.77

* * *

Kindly supply the reported LC50 values for the records listed here.
# Tested on: A549
# MEASUREMENT_NOTES: Cytotoxicity against human A549 cells after 48 hrs by SRB assay
# Assay type: functional, cell-based
# STATED_CONDITIONS: Homo sapiens, A549, 48 h
I only need the number, in nM, no unit after it.

Field request: LC50 | item: C/C=C1\NC(=O)[C@H](Cc2ccccc2)NC(=O)[C@@H](C(C)C)NC(=O)[C@@H]([C@@H](C)CC)NC(=O)[C@H](NC(=O)[C@H](NC(=O)[C@H](CCCN)NC(=O)[C@H]2CCCN2C(=O)[C@H](NC(=O)[C@@H](NC(=O)[C@@H](NC(=O)[C@H](NC(=O)CCCC(C)C)[C@@H](C)O)[C@@H](C)O)C(C)C)C(C)C)[C@@H](C)CC)[C@@H](C)OC(=O)[C@H](C(C)C)NC1=O
1030

Field request: LC50 | item: CC[C@@H](C)[C@@H](NC(=O)[C@H](CCCN)NC(=O)[C@H]1CCCN1C(=O)[C@H](NC(=O)[C@@H](NC(=O)[C@@H](NC(=O)[C@H](NC(=O)CCCC(C)C)C(C)C)[C@@H](C)O)C(C)C)C(C)C)C(=O)N[C@H]1C(=O)N[C@H]([C@H](C)CC)C(=O)N[C@H](C(C)C)C(=O)N[C@@H](Cc2ccccc2)C(=O)N[C@H]([C@H](C)O)C(=O)N[C@@H](C(C)C)C(=O)O[C@H]1C
1150

Field request: LC50 | item: C/C=C1\NC(=O)[C@H](Cc2cccc(Cl)c2)NC(=O)[C@@H](C(C)C)NC(=O)[C@@H]([C@H](C)CC)NC(=O)[C@H](NC(=O)[C@H](NC(=O)[C@H](CCCN)NC(=O)[C@H]2CCCN2C(=O)[C@H](NC(=O)[C@@H](NC(=O)[C@@H](NC(=O)[C@H](NC(=O)CCCC(C)C)C(C)C)[C@@H](C)O)C(C)C)C(C)C)[C@H](C)CC)[C@H](C)OC(=O)[C@H](C(C)C)NC1=O
911

* * *

# Test system: LNCaP
# MEASUREMENT_NOTES: Cytotoxicity against human LNcaP cells after 48 hrs by SRB assay
# Assay type: functional
Kindly supply the reported GI50 values for the records listed here.
Reply with a number, then the unit it belongs to.

Field request: GI50 | item: C/C=C1\NC(=O)[C@H](Cc2ccccc2)NC(=O)[C@@H](C(C)C)NC(=O)[C@@H]([C@H](C)CC)NC(=O)[C@H](NC(=O)[C@H](NC(=O)[C@H](CCCN)NC(=O)[C@H]2CCCN2C(=O)[C@H](NC(=O)[C@@H](NC(=O)[C@@H](NC(=O)[C@H](NC(=O)CC[C@H](C)CC)C(C)C)[C@@H](C)O)C(C)C)C(C)C)[C@H](C)CC)[C@H](C)OC(=O)[C@H](C(C)C)NC1=O
1470 nM

Field request: GI50 | item: C/C=C1\NC(=O)[C@H](Cc2ccccc2)NC(=O)[C@@H](C(C)C)NC(=O)[C@@H]([C@H](C)CC)NC(=O)[C@H](NC(=O)[C@H](NC(=O)[C@H](CCCN)NC(=O)[C@H]2CCCN2C(=O)[C@H](NC(=O)[C@@H]2CCCN2C(=O)[C@@H](NC(=O)[C@H](NC(=O)CCCC(C)C)C(C)C)[C@@H](C)O)C(C)C)[C@H](C)CC)[C@H](C)OC(=O)[C@H](C(C)C)NC1=O
347 nM

Field request: GI50 | item: C/C=C1\NC(=O)[C@H](Cc2c(F)c(F)c(F)c(F)c2F)NC(=O)[C@@H](C(C)C)NC(=O)[C@@H]([C@H](C)CC)NC(=O)[C@H](NC(=O)[C@H](NC(=O)[C@H](CCCN)NC(=O)[C@H]2CCCN2C(=O)[C@H](NC(=O)[C@@H](NC(=O)[C@@H](NC(=O)[C@H](NC(=O)CC[C@@H](C)CC)C(C)C)[C@@H](C)O)C(C)C)C(C)C)[C@H](C)CC)[C@H](C)OC(=O)[C@H](C(C)C)NC1=O
504 nM

* * *

# Tested on: A549
# MEASUREMENT_NOTES: Cytotoxicity against human A549 cells after 48 hrs by SRB assay
# Type: functional, cell-based
# STATED_CONDITIONS: Homo sapiens, A549, 48 h
Kindly supply the reported LC50 values for the records listed here.
I only need the number, in nM, no unit after it.

Field request: LC50 | item: C/C=C1\NC(=O)[C@H](Cc2ccccc2)NC(=O)[C@@H](C(C)C)NC(=O)[C@@H]([C@H](C)CC)NC(=O)[C@H](NC(=O)[C@H](NC(=O)[C@H](CCCN)NC(=O)[C@H]2CCCN2C(=O)[C@H](NC(=O)[C@@H](NC(=O)[C@@H](NC(=O)[C@H](NC(=O)CC[C@@H](C)CC)C(C)C)[C@@H](C)OC(=O)C(F)(F)F)C(C)C)C(C)C)[C@H](C)CC)[C@H](C)OC(=O)[C@H](C(C)C)NC1=O
101

Field request: LC50 | item: C/C=C1\NC(=O)[C@H](Cc2ccccc2)N(C)C(=O)[C@@H](C(C)C)NC(=O)[C@@H]([C@H](C)CC)NC(=O)[C@H](NC(=O)[C@H](NC(=O)[C@H](CCCN)NC(=O)[C@H]2CCCN2C(=O)[C@H](NC(=O)[C@@H](NC(=O)[C@@H](NC(=O)[C@H](NC(=O)CC[C@@H](C)CC)C(C)C)[C@@H](C)O)C(C)C)C(C)C)[C@H](C)CC)[C@H](C)OC(=O)[C@H](C(C)C)NC1=O
999

* * *

# Test system: HT-29
# MEASUREMENT_NOTES: Cytotoxicity against human HT29 cells after 48 hrs by SRB assay
# Format: functional, cell-based
# STATED_CONDITIONS: Homo sapiens, HT-29, 48 h; read-out: LC50 (the source's name)
RECORDED_ENDPOINT: CC50 (nM)
I only need the number, in nM, no unit after it.

Lab note: need CC50 with HT-29 for entry C/C=C1\NC(=O)[C@H](Cc2c[nH]c3ccccc23)NC(=O)[C@@H](C(C)C)NC(=O)[C@@H]([C@H](C)CC)NC(=O)[C@H](NC(=O)[C@H](NC(=O)[C@H](CCCN)NC(=O)[C@H]2CCCN2C(=O)[C@H](NC(=O)[C@@H](NC(=O)[C@@H](NC(=O)[C@H](NC(=O)CCCC(C)C)C(C)C)[C@@H](C)O)C(C)C)C(C)C)[C@H](C)CC)[C@H](C)OC(=O)[C@H](C(C)C)NC1=O , please look it up.
1190

Lab note: need CC50 with HT-29 for entry C/C=C1\NC(=O)[C@H](Cc2ccccc2)NC(=O)[C@@H](C(C)C)NC(=O)[C@@H]([C@H](C)CC)NC(=O)[C@H](NC(=O)[C@H](NC(=O)[C@H](CCCN)NC(=O)[C@H]2CCCN2C(=O)[C@H](NC(=O)[C@@H](NC(=O)[C@@H](NC(=O)[C@H](NC(=O)CCCCC(C)=O)C(C)C)[C@@H](C)O)C(C)C)C(C)C)[C@H](C)CC)[C@H](C)OC(=O)[C@H](C(C)C)NC1=O , please look it up.
2350

* * *

# Test system: HT-29
# MEASUREMENT_NOTES: Cytotoxicity against human HT29 cells after 48 hrs by SRB assay
# Assay type: functional, cell-based
# STATED_CONDITIONS: Homo sapiens, HT-29, 48 h
RECORDED_ENDPOINT: GI50

Field request: GI50 | item: C/C=C1\NC(=O)[C@H](Cc2ccccc2)NC(=O)[C@@H](C(C)C)NC(=O)[C@@H]([C@H](C)CC)NC(=O)[C@H](NC(=O)[C@H](NC(=O)[C@H](CCCN)NC(=O)[C@H]2CCCN2C(=O)[C@H](NC(=O)[C@@H](NC(=O)[C@H](CCCN)NC(=O)[C@H](NC(=O)CCCC(C)C)C(C)C)C(C)C)C(C)C)[C@H](C)CC)[C@H](C)OC(=O)[C@H](C(C)C)NC1=O
5.9 µM

Field request: GI50 | item: C/C=C1\NC(=O)[C@H](Cc2ccccc2)N(C)C(=O)[C@@H](C(C)C)NC(=O)[C@@H]([C@H](C)CC)NC(=O)[C@H](NC(=O)[C@H](NC(=O)[C@H](CCCN)NC(=O)[C@H]2CCCN2C(=O)[C@H](NC(=O)[C@@H](NC(=O)[C@@H](NC(=O)[C@H](NC(=O)CC[C@@H](C)CC)C(C)C)[C@@H](C)O)C(C)C)C(C)C)[C@H](C)CC)[C@H](C)OC(=O)[C@H](C(C)C)NC1=O
0.274 µM
